For each of the binders below, state its pKd.
Biological target: T1, CD40hfc (R&Dsystems, USA) (UniProt P25942 21-193)
T1 construct: Bought reagent; also called immobilized CD40 receptor; target; not shown: Fc part ('hfc') of the bought fusion
T1 sequence (P25942 21-193 limits assumed): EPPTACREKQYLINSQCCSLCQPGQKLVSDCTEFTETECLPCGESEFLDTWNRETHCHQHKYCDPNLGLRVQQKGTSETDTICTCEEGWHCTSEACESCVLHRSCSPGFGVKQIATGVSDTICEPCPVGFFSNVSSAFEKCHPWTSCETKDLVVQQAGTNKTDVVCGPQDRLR
Assay: SPR (Biacore 3000), CD40hfc amine-coupled on chip, antibody as analyte, 37 C, pH 7.3
Protocol: The affinity measures of purified antibodies by surface plasmon resonance using the Biacore 3000 instrument was performed according to manufacturer's protocols. The CD40hfc (R&Dsystems, USA) was immobilized to the BIAcore sensorchip, CMS, using conventional amine coupling. The anti-CD40 antibodies of the invention, (serially diluted 1/3 from 1-0.012 nM) were analysed for binding in HBS-P (GE, BR-1003-68) at a flow rate of 30 μl/min at 37° C. and pH 7.3. […]
Please express pKd as -log10 of the molar concentration.

Entry under test: Antibody clone H11 (antibody, human IgG1, lambda, V domains shown, also called H11 ANTI-CD40 ANTIBODY) VH: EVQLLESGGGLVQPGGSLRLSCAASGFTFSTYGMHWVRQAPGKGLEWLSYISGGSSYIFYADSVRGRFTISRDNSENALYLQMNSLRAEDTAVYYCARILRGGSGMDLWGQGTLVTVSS VL: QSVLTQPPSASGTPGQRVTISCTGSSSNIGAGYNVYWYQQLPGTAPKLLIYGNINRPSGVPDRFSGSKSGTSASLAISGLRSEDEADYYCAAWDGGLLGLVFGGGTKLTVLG . Its pKd was 10.80

Entry under test: Antibody clone A5 (antibody, human IgG1, lambda, V domains shown) VH: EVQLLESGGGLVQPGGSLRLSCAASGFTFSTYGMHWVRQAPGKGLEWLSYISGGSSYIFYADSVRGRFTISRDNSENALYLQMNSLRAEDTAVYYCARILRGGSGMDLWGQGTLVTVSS VL: QSVLTQPPSASGTPGQRVTISCTGSSSNIGAGYHVYWYQQLPGTAPKLLIYGSINRPSGVPDRFSGSKSGTSGSLAISGLRSEDEADYYCAAWDSSSSGLVFGGGTKLTVLG . Its pKd was 10.96

Entry under test: Antibody B44 (antibody, V domains shown, Parent agonistic anti-CD40 antibody from the n-CoDeR library; Run alongside the IgG clones as 'B44 antibody' and detected with anti-human Ig on RAMOS cells; also called B44 antibody; original anti-CD40 antibody) VH: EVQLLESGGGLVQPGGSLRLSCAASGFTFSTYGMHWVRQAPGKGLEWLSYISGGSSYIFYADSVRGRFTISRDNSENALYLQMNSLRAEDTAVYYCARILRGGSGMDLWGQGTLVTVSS VL: QSVLTQPPSASGTPGQRVTISCTGSSSNIGAGYDVYWYQQLPGTAPKLLIYGNINRPSGVPDRFSGSKSGTSASLAISGLRSEDEADYYCAAWDDSLSGLVFGGGTKLTVLG . Its pKd was 8.77

# credit: patent US20140348836A1
